# Test system: S. aureus (B042 V2E1 A)
# Format: cell-based, Staphylococcus aureus
# studyConditions: B042 V2E1 A
Where no end group is shown, it is not given here.
Listing of recorded MBC by entry.
endpointLabel: MBC

1. FVNVLDKIR-NH2 [FV-9, FVNVLDKIR-NH2]
>512 µM
2. FVNVLDKI-NH2 [FV-8, FVNVLDKI-NH2]
>512 µM
3. GLWNSIKIAGKKLFVNVLDKIR-NH2 [GL-22]
64 µM
4. LFVNVLDKIR-NH2 [LF-10, LFVNVLDKIR-NH2]
>512 µM

----------
# Test system: S. aureus (B042 V2E1 A)
# Assay type: cell-based, Staphylococcus aureus
# studyConditions: B042 V2E1 A
Where no end group is shown, it is not given here.
endpointLabel: MIC

1. LFVNVLDKIR-NH2 [LF-10, LFVNVLDKIR-NH2]
>512 µM
2. FVNVLDKIR-NH2 [FV-9, FVNVLDKIR-NH2]
>512 µM
3. FVNVLDKI-NH2 [FV-8, FVNVLDKI-NH2]
>512 µM
4. GLWNSIKIAGKKLFVNVLDKIR-NH2 [GL-22]
32 µM

The measured values listed here are drawn from paper PMC9405102.
